Assay: PK, intravenous administration
Format: in vivo
Details: rat, plasma, male Sprague Dawley rats, dose about 1 mg/kg

compound | clearance (mL/min/kg)
CN(C)C1CCN(S(=O)(=O)c2nnc(Nc3c4c(cc5c3CCC5)CCC4)[nH]2)CC1 [Example 118] | 54.2
CC(C)n1ccc(S(=O)(=O)c2nnc(Nc3c4c(cc5c3CCC5)CCC4)[nH]2)n1 [Example 337] | 17
COc1cc(-c2c(C)cc3c(c2Nc2nnc(S(=O)(=O)N4CCC(N(C)C)CC4)[nH]2)CCC3)ccn1 [Example 216] | 72.3
CCN(CC)CCCS(=O)(=O)c1nnc(Nc2c(-c3ccnc(OC)c3)cc(F)cc2C(C)C)[nH]1 [Example 79] | 60

* * *

Target: NLRP3 (Homo sapiens, UniProt Q96P20)
Sequence (Q96P20 whole entry): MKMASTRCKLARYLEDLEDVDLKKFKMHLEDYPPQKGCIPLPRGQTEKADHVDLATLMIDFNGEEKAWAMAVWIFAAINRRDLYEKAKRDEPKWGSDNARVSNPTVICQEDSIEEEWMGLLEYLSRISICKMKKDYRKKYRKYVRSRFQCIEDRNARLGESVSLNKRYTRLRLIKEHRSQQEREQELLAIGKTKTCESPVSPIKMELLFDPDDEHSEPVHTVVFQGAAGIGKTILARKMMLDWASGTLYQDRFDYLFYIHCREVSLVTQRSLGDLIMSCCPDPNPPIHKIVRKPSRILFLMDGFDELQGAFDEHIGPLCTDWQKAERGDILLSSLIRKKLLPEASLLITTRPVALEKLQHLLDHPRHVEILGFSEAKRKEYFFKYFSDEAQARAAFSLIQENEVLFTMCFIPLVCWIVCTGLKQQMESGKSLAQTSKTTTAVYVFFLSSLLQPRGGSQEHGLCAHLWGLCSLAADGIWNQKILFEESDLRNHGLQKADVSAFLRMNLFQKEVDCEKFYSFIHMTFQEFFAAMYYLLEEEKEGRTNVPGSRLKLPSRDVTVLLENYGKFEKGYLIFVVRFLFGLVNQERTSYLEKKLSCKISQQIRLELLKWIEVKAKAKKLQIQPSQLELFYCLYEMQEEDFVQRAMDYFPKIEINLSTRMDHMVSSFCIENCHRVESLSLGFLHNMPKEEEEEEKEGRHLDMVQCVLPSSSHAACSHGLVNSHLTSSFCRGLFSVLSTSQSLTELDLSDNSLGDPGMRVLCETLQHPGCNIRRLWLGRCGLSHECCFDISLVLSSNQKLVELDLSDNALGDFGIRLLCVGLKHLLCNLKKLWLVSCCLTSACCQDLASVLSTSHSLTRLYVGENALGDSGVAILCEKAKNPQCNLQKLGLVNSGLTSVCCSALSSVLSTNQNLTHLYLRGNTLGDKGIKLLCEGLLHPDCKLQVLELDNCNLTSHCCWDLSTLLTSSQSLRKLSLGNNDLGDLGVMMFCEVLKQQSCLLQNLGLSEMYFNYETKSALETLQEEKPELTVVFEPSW
Test: THP-1 cells pyroptosis assay
Assay type: cell-based
Parameters: Seed THP-1 cells (25,000 cells/well) containing 1.0 μg/ml LPS; host or cells: THP-1
Settings: LPS 1.0 μg/ml, nigericin 5 μM, resazurin readout, 10 μM top dose (Example 2: top dose of 30 μM)
measure.name: IC50

compound | measure.name | result
CN1CCCNC(=O)C12CCN(S(=O)(=O)c1nnc(Nc3c4c(cc5c3CCC5)CCC4)[nH]1)CC2 [Example 294] | IC50 | ≤ 500 nM
CN(C)Cc1cccc(S(=O)(=O)c2nnc(Nc3c4c(cc5c3CCC5)CCC4)[nH]2)c1 [Example 44] | IC50 | ≤ 500 nM
Cc1cc(-c2cc(F)cc(C(C)C)c2Nc2nnc(S(=O)(=O)N3CCC(N(C)C)CC3)[nH]2)ccn1 [Example 302] | IC50 | ≤ 5000 nM
COc1cc(-c2cc(F)cc(C(C)C)c2Oc2nnc(S(=O)(=O)N3CCC4(CCN4C)CC3)[nH]2)ccn1 [Example 252] | IC50 | ≤ 1000 nM

* * *

Experiment: PK, intravenous administration
Type: in vivo
Details: rat, plasma, male Sprague Dawley rats, dose about 1 mg/kg
measure.name: AUC

compound | measure.name | result
CN1CCC2(C1)CN(S(=O)(=O)c1nnc(Nc3c(-c4ccnc(OC(F)F)c4)ccc4c3CCC4)[nH]1)C2 | AUC | 186 ng·h/mL
COc1cc(-c2cc(F)cc(C(C)C)c2Oc2nnc(S(=O)(=O)N3CCC(CN(C)C)C3)[nH]2)ccn1 (stereo not shown) | AUC | 267 ng·h/mL
CC(C)n1ccc(S(=O)(=O)c2nnc(Nc3c4c(cc5c3CCC5)CCC4)[nH]2)n1 | AUC | 981 ng·h/mL
CNCCCS(=O)(=O)c1nnc(Nc2c3c(cc4c2CCC4)CCC3)[nH]1 | AUC | 273 ng·h/mL

* * *

Experiment: PK, intravenous administration
Type: in vivo
Conditions: rat, plasma, male Sprague Dawley rats, dose about 1 mg/kg

smiles.repr | clearance
Cc1cc(-c2cc(F)cc(C(C)C)c2Nc2nnc(S(=O)(=O)N3CCC(N(C)C)CC3)[nH]2)ccn1 | 109 mL/min/kg
CC(C)(O)Cn1ccc(S(=O)(=O)c2nnc(Nc3c4c(cc5c3CCC5)CCC4)[nH]2)n1 | 13.5 mL/min/kg
O=S(=O)(c1ccccc1)c1nnc(Nc2c3c(cc4c2CCC4)CCC3)[nH]1 | 11.4 mL/min/kg

* * *

Biological target: NLRP3 (Homo sapiens, UniProt Q96P20)
Test: THP-1 cells pyroptosis assay
Format: cell-based
Design: Seed THP-1 cells (25,000 cells/well) containing 1.0 μg/ml LPS; host or cells: THP-1
Conditions: LPS 1.0 μg/ml, nigericin 5 μM, resazurin readout, 10 μM top dose (Example 2: top dose of 30 μM)
measure.name: IC50

compound | measure.name | result
CCN(CC)CCCS(=O)(=O)c1nnc(Nc2c(-c3ccncc3)cc(F)c3c2CCC3)[nH]1 | IC50 | ≤ 1 µM
CC(C)(O)c1cccc(S(=O)(=O)c2nnc(Nc3c4c(cc5c3CCC5)CCC4)[nH]2)c1 | IC50 | ≤ 1 µM
COC1(c2cc([S+]([O-])c3nnc(Nc4c5c(cc6c4CCC6)CCC5)[nH]3)nn2C(C)C)COC1 (centres unmarked) | IC50 | ≤ 10 µM
O=S(=O)(c1cncnc1)c1n[nH]c(Nc2c3c(cc4c2CCC4)CCC3)n1 | IC50 | ≤ 10 µM
CN(C)C1CCN(S(=O)(=O)c2nnc(Nc3c(-c4ccnc(OC(F)F)c4)ccc4c3CCO4)[nH]2)CC1 | IC50 | ≤ 0.5 µM
O=S(=O)(Cc1ccccc1)c1nnc(Nc2c3c(cc4c2CCC4)CCC3)[nH]1 | IC50 | ≤ 10 µM
O=S(=O)(CCc1ccccn1)c1nnc(Nc2c3c(cc4c2CCC4)CCC3)[nH]1 | IC50 | ≤ 1 µM
O=S(=O)(c1nnc(Nc2c3c(cc4c2CCC4)CCC3)[nH]1)N1CCC2(CC1)CNC2 | IC50 | ≤ 10 µM
